# Test system: RIVA
# Experimental Details: growth inhibition by drug alone (1 - RLU/untreated control) (fraction); higher = stronger inhibition
# Cond: 10 nM; time (day): 6; 177Lu-lilotomab satetraxetan 0 ug/ml
Counter-ions that a name gives are not always drawn.
Assign class by growth inhibition by drug alone: not lower than -0.3 means fulfilled; lower than -0.3 means not fulfilled.

Study these solved cases before continuing.
[[record]]
molecule = "O=C(Nc1ccc(OC(F)(F)F)cc1)c1sccc1NCc1ccnc2ccccc12"
measured_on = "RIVA"
assigned_label = "fulfilled"

[[record]]
molecule = "CN1CC[C@H](c2c(O)cc(O)c3c(=O)cc(-c4ccccc4Cl)oc23)[C@H](O)C1 [Flavopiridol hydrochloride]"
measured_on = "RIVA"
assigned_label = "fulfilled"

[[record]]
molecule = "Cc1ccc(Nc2nccc(N(C)c3ccc4c(C)n(C)nc4c3)n2)cc1S(N)(=O)=O"
measured_on = "RIVA"
assigned_label = "fulfilled"


Exam item: decide whether the reported growth inhibition by drug alone for CN(C)CCOc1ccc(/C(=C(/CCCl)c2ccccc2)c2ccccc2)cc1 [Toremifene Citrate (Fareston, Acapodene)] is at least -0.3.
fulfilled

Please tell me: is the molecule CN(C)C/C=C/C(=O)Nc1cc2c(Nc3ccc(F)c(Cl)c3)ncnc2cc1O[C@H]1CCOC1 at or over -0.3 in terms of growth inhibition by drug alone?
not fulfilled

Could you verify whether the entry Cc1cc(Nc2cc(N3CCN(C)CC3)nc(/C=C/c3ccccc3)n2)n[nH]1 shows growth inhibition by drug alone of no less than -0.3?
not fulfilled

Kindly determine if growth inhibition by drug alone recorded for Nc1ccc(C(=O)Nc2cccc(-c3nc(N4CCOCC4)c4oc5ncccc5c4n3)c2)cn1 is above or exactly -0.3.
not fulfilled

---

# System: RIVA
# Experimental Details: growth inhibition by drug plus 177Lu-lilotomab satetraxetan (1 - RLU/untreated control) (fraction); higher = stronger inhibition
# Cond: 100 nM; time (day): 6; 177Lu-lilotomab satetraxetan 0.5 ug/ml
Counter-ions that a name gives are not always drawn.
So basically: growth inhibition by drug plus 177Lu-lilotomab satetraxetan at 0.5 or higher? That is class 1. Lower than 0.5? That is class 0.

Does the reported growth inhibition by drug plus 177Lu-lilotomab satetraxetan for O=c1oc2c(O)c(O)cc3c(=O)oc4c(O)c(O)cc1c4c23 fall at or above the 0.5 mark?
class 0

# check: growth inhibition by drug plus 177Lu-lilotomab satetraxetan of CC(=O)c1c(C)c2cnc(Nc3ccc(N4CCNCC4)cn3)nc2n(C2CCCC2)c1=O is greater than or equal to 0.5
class 0

Is growth inhibition by drug plus 177Lu-lilotomab satetraxetan at least 0.5? Consider Cc1cccc(-c2nn3c(c2-c2ccnc4ccc(C(N)=O)cc24)CCC3)n1
class 0

// inclusive: growth inhibition by drug plus 177Lu-lilotomab satetraxetan at least 0.5? input: Clc1ccc(Nc2nnc(Cc3ccncc3)c3ccccc23)cc1 [Vatalanib dihydrochloride (PTK787)]
class 0

Answer whether growth inhibition by drug plus 177Lu-lilotomab satetraxetan of CCOC(=O)[C@@H](C)Oc1cccc2c(=O)n(CC(=O)Nc3ccc4c(c3)OCCO4)ccc12 is greater than or equal to 0.5.
class 0

Is growth inhibition by drug plus 177Lu-lilotomab satetraxetan for CS(=O)(=O)N1CCN(Cc2cc3nc(-c4cccc5[nH]ncc45)nc(N4CCOCC4)c3s2)CC1 at or above 0.5?
class 0

Please check the record FC(F)c1nc2ccccc2n1-c1nc(N2CCOCC2)nc(N2CCOCC2)n1 and state if its growth inhibition by drug plus 177Lu-lilotomab satetraxetan is at or above 0.5.
class 1

---

# Tested on: RIVA
# Experimental Details: growth inhibition by drug plus 177Lu-lilotomab satetraxetan (1 - RLU/untreated control) (fraction); higher = stronger inhibition
# Cond: 100 nM; time (day): 6; 177Lu-lilotomab satetraxetan 0.5 ug/ml
Decide by growth inhibition by drug plus 177Lu-lilotomab satetraxetan: equal to or exceeding 0.4 means yes (1), less means no (0).

Solved cases (5 shown):
[[record]]
compound = "Nc1nc(Cl)nc2c1ncn2[C@H]1C[C@H](O)[C@@H](CO)O1 [Cladribine]"
assigned_label = "yes (1)"

[[record]]
compound = "COc1cc2c(N3CCN(C(=O)Nc4ccc(OC(C)C)cc4)CC3)ncnc2cc1OCCCN1CCCCC1 [Tandutinib (MLN518)]"
assigned_label = "no (0)"

[[record]]
compound = "O=c1cc(N2CCOCC2)oc2c(-c3ccccc3)cccc12"
assigned_label = "yes (1)"

[[record]]
compound = "CNC(=O)c1cc(Oc2ccc(NC(=O)Nc3ccc(Cl)c(C(F)(F)F)c3)c(F)c2)ccn1 [Regorafenib (BAY 73-4506)]"
assigned_label = "yes (1)"

[[record]]
compound = "CN(C)CCOc1ccc(-c2nc(-c3ccncc3)c(-c3ccc4c(c3)CC/C4=N\\O)[nH]2)cc1"
assigned_label = "yes (1)"


Answer whether growth inhibition by drug plus 177Lu-lilotomab satetraxetan of CN(C)c1nc(N(C)C)nc(N(C)C)n1 [Altretamine (Hexalen)] is greater than or equal to 0.4.
no (0)

Could you verify whether the entry CNCc1ccc(-c2[nH]c3cc(F)cc4c3c2CCNC4=O)cc1 shows growth inhibition by drug plus 177Lu-lilotomab satetraxetan of no less than 0.4?
yes (1)

Form field: growth inhibition by drug plus 177Lu-lilotomab satetraxetan at least 0.4? Entry: N#CC[C@H](C1CCCC1)n1cc(-c2ncnc3[nH]ccc23)cn1
no (0)

---

# Test system: RIVA
# Experimental Details: growth inhibition by drug plus 177Lu-lilotomab satetraxetan (1 - RLU/untreated control) (fraction); higher = stronger inhibition
# Cond: 100 nM; time (day): 4; 177Lu-lilotomab satetraxetan 0.5 ug/ml
Where a name gives a salt, the structure may show the parent alone.
Hi, to clarify the labels: T covers growth inhibition by drug plus 177Lu-lilotomab satetraxetan from 0.5 upward, F covers anything below 0.5.

[[record]]
molecule = "CN(C)Cc1c(C(=O)NCCOc2ccc(C(=O)NO)cc2)oc2ccccc12"
measured_on = "RIVA"
assigned_label = "T"

[[record]]
molecule = "CCN(CC)CCNC(=O)c1c(C)[nH]c(/C=C2\\C(=O)Nc3ccc(F)cc32)c1C [Sunitinib Malate (Sutent)]"
measured_on = "RIVA"
assigned_label = "F"

[[record]]
molecule = "CCc1c2c(nc3ccc(OC(=O)N4CCC(N5CCCCC5)CC4)cc13)-c1cc3c(c(=O)n1C2)COC(=O)[C@]3(O)CC [Irinotecan HCl Trihydrate (Campto)]"
measured_on = "RIVA"
assigned_label = "T"


Is the recorded value of growth inhibition by drug plus 177Lu-lilotomab satetraxetan equal to or greater than 0.5 for this molecule? COc1cccc2c1C(=O)c1c(O)c3c(c(O)c1C2=O)C[C@@](O)(C(=O)CO)C[C@@H]3O[C@H]1C[C@H](N)[C@@H](O)[C@H](C)O1 [Epirubicin Hydrochloride]
T

Dear colleague, could you confirm whether C[C@@H](N)[C@H]1CC[C@H](C(=O)Nc2ccncc2)CC1 has growth inhibition by drug plus 177Lu-lilotomab satetraxetan at or above 0.5?
F

Could you please find out whether COc1c(C)cnc(Cn2cnc3c(Cl)nc(N)nc32)c1C has growth inhibition by drug plus 177Lu-lilotomab satetraxetan that meets 0.5 or exceeds it?
T

I'd appreciate it if you could say whether Cc1csc(-c2nnc(Nc3ccc(Oc4ncccc4-c4ccnc(N)n4)cc3)c3ccccc23)c1 has growth inhibition by drug plus 177Lu-lilotomab satetraxetan at least equal to 0.5.
T

Textbook exercise: given the entry O=C(/C=C/c1cccnc1)NCCCCC1CCN(C(=O)c2ccccc2)CC1 , state whether its growth inhibition by drug plus 177Lu-lilotomab satetraxetan is greater than or equal to 0.5.
T

Kindly determine if growth inhibition by drug plus 177Lu-lilotomab satetraxetan recorded for Cc1ccc(-n2nc(C(C)(C)C)cc2NC(=O)Nc2ccc(OCCN3CCOCC3)c3ccccc23)cc1 is above or exactly 0.5.
T

---

# Test system: U-2932
# Experimental Details: growth inhibition by drug alone (1 - RLU/untreated control) (fraction); higher = stronger inhibition
# Cond: 1000 nM; time (day): 6; 177Lu-lilotomab satetraxetan 0 ug/ml
Measure Name: growth inhibition by drug alone

Known growth inhibition by drug alone results, listed for orientation:
[[record]]
molecule = "O=C(Nc1ncc([N+](=O)[O-])s1)c1ccc([N+](=O)[O-])c(Cl)c1"
endpoint_result = 0.129

[[record]]
molecule = "COc1cc(C(=O)NC(=S)Nc2cccc(NC(=O)c3ccccc3)c2)cc(OC)c1OC"
endpoint_result = 0.0418

[[record]]
molecule = "C[C@@H](O[C@H]1OCCN(Cc2n[nH]c(=O)[nH]2)[C@H]1c1ccc(F)cc1)c1cc(C(F)(F)F)cc(C(F)(F)F)c1 [Aprepitant (MK-0869)]"
endpoint_result = -0.0573


Switching to the query record.
# get_value(readout='growth inhibition by drug alone', item= O=C(NOC[C@H](O)CO)c1ccc(F)c(F)c1Nc1ccc(I)cc1F )
0.0951

---

# Test system: U-2932
# Experimental Details: growth inhibition by drug plus 177Lu-lilotomab satetraxetan (1 - RLU/untreated control) (fraction); higher = stronger inhibition
# Cond: 10 nM; time (day): 4; 177Lu-lilotomab satetraxetan 1 ug/ml
Counter-ions that a name gives are not always drawn.
Listing: growth inhibition by drug plus 177Lu-lilotomab satetraxetan of selected compounds
Enter the number alone.

Use the examples below as a reference point.
[[record]]
compound = "O=C(NCCS(=O)(=O)c1ccc(C(F)(F)F)cn1)c1ccc(Cl)cc1"
endpoint_result = 0.0392

[[record]]
compound = "O=C1[C@H](CC[C@H](O)c2ccc(F)cc2)[C@@H](c2ccc(O)cc2)N1c1ccc(F)cc1 [Ezetimibe (Zetia)]"
endpoint_result = 0.145

[[record]]
compound = "CN(N=O)C(=O)N[C@@H](C=O)[C@@H](O)[C@H](O)[C@H](O)CO [Streptozotocin (Zanosar)]"
endpoint_result = -0.0512

[[record]]
compound = "CC#C[C@]1(O)CC[C@H]2[C@@H]3CCC4=CC(=O)CCC4=C3[C@@H](c3ccc(N(C)C)cc3)C[C@@]21C [Mifepristone (Mifeprex)]"
endpoint_result = 0.0308

[[record]]
compound = "C#CCN(C)CC1=Cc2ccccc2Oc2ccccc21"
endpoint_result = 0.075


Reported growth inhibition by drug plus 177Lu-lilotomab satetraxetan for Nc1nc(OCc2cc(Br)cs2)c2[nH]cnc2n1 [Lomeguatrib] : what is it?
0.0431

growth inhibition by drug plus 177Lu-lilotomab satetraxetan for COc1cc(Nc2ncc(F)c(Nc3ccc4c(n3)NC(=O)C(C)(C)O4)n2)cc(OC)c1OC [R406(free base)] ?
0.0369

Which growth inhibition by drug plus 177Lu-lilotomab satetraxetan value belongs to CC(C)n1nc(-c2ccc3oc(N)nc3c2)c2c(N)ncnc21 ?
0.294

# input compound: O=c1cc(N2CCOCC2)oc2c(-c3cccc4c3sc3ccccc34)cccc12 ; wanted: its growth inhibition by drug plus 177Lu-lilotomab satetraxetan
0.131

Please report the recorded growth inhibition by drug plus 177Lu-lilotomab satetraxetan for COc1ccc(CCN2CCN(CCCc3ccccc3)CC2)cc1OC .
-0.0209

Look up growth inhibition by drug plus 177Lu-lilotomab satetraxetan for this compound: Fc1cc(-c2cccc3ncc(-c4cnn(C5CCNCC5)c4)nc23)cc(F)c1CN1CCOCC1
0.0958

Entry under review: COc1cc(Nc2ncc(F)c(Nc3ccc4c(n3)N(COP(=O)(O)O)C(=O)C(C)(C)O4)n2)cc(OC)c1OC . Reported growth inhibition by drug plus 177Lu-lilotomab satetraxetan?
0.0218

Looking for the measured growth inhibition by drug plus 177Lu-lilotomab satetraxetan of CNC(=O)c1cc(Oc2ccc(NC(=O)Nc3ccc(Cl)c(C(F)(F)F)c3)cc2)ccn1 [Sorafenib (Nexavar)] , can you help?
-0.00107

Any idea what its growth inhibition by drug plus 177Lu-lilotomab satetraxetan is? The compound is O=C(Nc1ccc(OC(F)(F)F)cc1)c1sccc1NCc1ccnc2ccccc12
0.051

Reported growth inhibition by drug plus 177Lu-lilotomab satetraxetan for CS(=O)(=O)N1CCc2c(-c3cnc(N)nc3)nc(N3CCOCC3)nc21 : what is it?
0.0867

Which measured growth inhibition by drug plus 177Lu-lilotomab satetraxetan value corresponds to O=C1c2c(O)ccc(O)c2C(=O)c2c(NCCNCCO)ccc(NCCNCCO)c21 [Mitoxantrone Hydrochloride] ?
0.694

Name the recorded growth inhibition by drug plus 177Lu-lilotomab satetraxetan for CN(CCOc1ccc(CC2SC(=O)NC2=O)cc1)c1ccccn1 (configuration not stated) [Rosiglitazone (Avandia)] .
0.00577

Recorded growth inhibition by drug plus 177Lu-lilotomab satetraxetan for CN(C)CCCN=c1c2ccccc2n(C)c2[nH]c(=O)n(C)c(=O)c12 , please?
0.0857

Requested field: growth inhibition by drug plus 177Lu-lilotomab satetraxetan. Item: CN(Cc1cnc2nc(N)nc(N)c2n1)c1ccc(C(=O)N[C@@H](CCC(=O)O)C(=O)O)cc1 [Abitrexate (Methotrexate)]
-0.083

State the recorded growth inhibition by drug plus 177Lu-lilotomab satetraxetan for this entry: CC(C)c1ccc(Cn2ccc3c4c(N)nc(NC5CC5)nc4ccc32)cc1
0.196
